Listed below: NPY2R pEC50 values for each entry.
measurement target: T1, NPY2R
T1 sequence (P49146 1-381, species assumed, looked up): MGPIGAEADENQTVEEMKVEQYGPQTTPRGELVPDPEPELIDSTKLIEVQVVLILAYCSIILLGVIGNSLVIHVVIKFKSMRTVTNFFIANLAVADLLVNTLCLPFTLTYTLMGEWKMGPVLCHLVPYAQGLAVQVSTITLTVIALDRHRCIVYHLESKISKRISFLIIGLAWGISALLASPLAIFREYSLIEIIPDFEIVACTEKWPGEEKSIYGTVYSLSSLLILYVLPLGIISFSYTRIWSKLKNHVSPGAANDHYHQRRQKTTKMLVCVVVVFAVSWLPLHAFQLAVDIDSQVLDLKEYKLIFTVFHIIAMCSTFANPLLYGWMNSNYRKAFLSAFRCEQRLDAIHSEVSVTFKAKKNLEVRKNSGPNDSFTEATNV
test protocol: cell-based or functional assay
Starred links: 1 amine or outer side, 2 acyl side, 3 side chain; linkers in the order of their positions; H or OH if unused. Positions of bridges follow the written chain, without caps; N, C: chain ends. Non-standard residues stand in square brackets, D forms with d. Groups on a side chain read outwards from the residue. No end group written: not given here. *: point of attachment. dpeg = —[CO(CH2)O(CH2)2O(CH2)NH]— spacer, O=C(COCCOCN[*:1])[*:2]; C20 diacid = O=C(O)CCCCCCCCCCCCCCCCCCC(=O)*; Phe(4-F) = N[C@@H](Cc1ccc(F)cc1)C(=O)O; γGlu = O=C(O)[C@H](CCC(=O)[*:2])N[*:1]; hPhe = N[C@@H](CCc1ccccc1)C(=O)O

[
  {
    "binder": "PKPEAPGK([γGlu-γGlu-C20 diacid])DASPEEWKRYYDDLRHYLNWLTRQRF-NH2 (lactam 16-20) [Compound A44]",
    "NPY2R pEC50": "9.7 -Log(EC50, M)"
  },
  {
    "binder": "PKPEAPGK([γGlu-γGlu-C20 diacid])DASPKEWNRYYKDLRHYLNWLTRQRF-NH2 [Compound A20]",
    "NPY2R pEC50": "10.5 -Log(EC50, M)"
  },
  {
    "binder": "PKPEAPGK([γGlu-γGlu-C20 diacid])DASPEEWNRYYADLRHYLNWLTRQR[Phe(4-F)]-NH2 [Compound A60]",
    "NPY2R pEC50": "10.3 -Log(EC50, M)"
  },
  {
    "binder": "PKPEAPGK([γGlu-γGlu-C20 diacid])DASPEEWNRYYADLRHYLNWLTRQR[hPhe]-NH2 [Compound A61]",
    "NPY2R pEC50": "10 -Log(EC50, M)"
  },
  {
    "binder": "PKPEAPGK([γGlu-γGlu-C20 diacid])DASPEEWNRYKKDLRHYLNWLTRQRF-NH2 [Compound A69]",
    "NPY2R pEC50": "10 -Log(EC50, M)"
  },
  {
    "binder": "PKPEAPGK([γGlu-γGlu-C20 diacid])DASPEKWNRYYKDLRHYLNWLTRQRF-NH2 [Compound A67]",
    "NPY2R pEC50": "10.3 -Log(EC50, M)"
  },
  {
    "binder": "PKPEAPGK([γGlu-γGlu-C20 diacid])DASPEEWERYYKDLRHYLNWLTRQRF-NH2 (lactam 16-20) [Compound A41]",
    "NPY2R pEC50": "10.5 -Log(EC50, M)"
  },
  {
    "binder": "PKPEAPGK([γGlu-γGlu-C20 diacid])DASPEEWDRYYKDLRHYLNWLTRQRF-NH2 (lactam 16-20) [Compound A42]",
    "NPY2R pEC50": "10.3 -Log(EC50, M)"
  },
  {
    "binder": "PKPEAPGK([γGlu-γGlu-C20 diacid])DASPEEWNRYYADLRHYLNWLTRQRF-NH2 [Compound A13]",
    "NPY2R pEC50": "10.2 -Log(EC50, M)"
  },
  {
    "binder": "PKPEAPGKDASPEEWNRYYK([γGlu-dpeg-dpeg-γGlu-C20 diacid])DLRHYLNWLTRQRF-NH2 [Compound A16]",
    "NPY2R pEC50": "10.2 -Log(EC50, M)"
  }
]
